Assayed System: T1, human CAPRIN-1 protein on the cell surfaces of human cancer cell lines and in human cancer tissues (human, UniProt Q14444 2-709)
T1 sequence (looked up): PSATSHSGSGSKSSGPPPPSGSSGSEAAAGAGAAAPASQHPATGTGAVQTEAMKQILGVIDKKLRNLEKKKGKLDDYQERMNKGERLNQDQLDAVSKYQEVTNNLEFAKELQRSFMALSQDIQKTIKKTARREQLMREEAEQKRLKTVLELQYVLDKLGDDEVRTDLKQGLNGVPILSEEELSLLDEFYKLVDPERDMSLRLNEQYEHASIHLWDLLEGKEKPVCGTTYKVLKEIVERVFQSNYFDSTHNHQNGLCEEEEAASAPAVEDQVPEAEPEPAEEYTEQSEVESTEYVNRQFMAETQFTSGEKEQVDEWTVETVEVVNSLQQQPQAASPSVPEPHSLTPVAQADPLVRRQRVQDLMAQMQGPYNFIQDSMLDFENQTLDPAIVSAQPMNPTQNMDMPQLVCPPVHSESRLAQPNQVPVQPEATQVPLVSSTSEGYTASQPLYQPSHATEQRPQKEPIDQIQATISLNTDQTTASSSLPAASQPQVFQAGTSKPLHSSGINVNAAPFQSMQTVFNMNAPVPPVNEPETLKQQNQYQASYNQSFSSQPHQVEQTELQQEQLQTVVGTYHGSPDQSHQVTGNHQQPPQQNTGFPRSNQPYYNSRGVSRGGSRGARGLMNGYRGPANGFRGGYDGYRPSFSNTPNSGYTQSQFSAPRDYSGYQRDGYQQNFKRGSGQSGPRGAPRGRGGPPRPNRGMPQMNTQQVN
Protocol Description: cell-based or functional assay
For each of the binders below, state its cytotoxic activity (ADCC) against A549.

Task: Which cytotoxic activity (ADCC) against A549 value belongs to anti-CAPRIN-1 mouse monoclonal antibody #5 (antibody, V domains shown, Mouse hybridoma antibody; detected with anti-mouse IgG) VH: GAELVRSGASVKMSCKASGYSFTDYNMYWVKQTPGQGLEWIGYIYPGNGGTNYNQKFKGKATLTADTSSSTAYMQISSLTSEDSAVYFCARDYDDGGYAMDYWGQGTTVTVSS VL: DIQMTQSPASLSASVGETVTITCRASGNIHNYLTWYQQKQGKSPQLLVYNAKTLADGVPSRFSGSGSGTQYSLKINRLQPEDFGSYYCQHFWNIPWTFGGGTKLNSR ?
Result: ≥ 24%

Task: Which cytotoxic activity (ADCC) against A549 value belongs to human-chicken chimeric antibody #1 having the chicken monoclonal antibody #1 variable region (antibody, V domains shown, also called anti-CAPRIN-1 antibody #1; human-chicken chimeric monoclonal antibody (#1); not shown: human IgG1 H-chain constant region; human IgG1 L-chain constant region) VH: AVTLDESGGGLQMSRGGLSLVCKASGFDFSSYQMNWIRQAPGKGLEFVAAINKFGNSTGHGAAVKGRVTISRDNGQSTVRLQLNNLRAEDTAIYFCTKHAYGYCGSGTWCAAGEIDAWGHGTEVIVSS VL: QAASTQPSSVSANPGETVEITCSGGGSYSYGWFQQKSPGSAPVTVIYYNNKRPSDIPSRFSGSKSGSTGTLTITGVQADDEAVYYCGSGDSTDTAVFGAGTTLTVLG ?
Result: 36.3%

Task: Which cytotoxic activity (ADCC) against A549 value belongs to anti-CAPRIN-1 mouse monoclonal antibody #4 (antibody, V domains shown) VH: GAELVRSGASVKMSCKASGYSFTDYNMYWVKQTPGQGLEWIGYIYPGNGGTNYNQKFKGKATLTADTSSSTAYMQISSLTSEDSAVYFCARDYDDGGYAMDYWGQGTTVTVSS VL: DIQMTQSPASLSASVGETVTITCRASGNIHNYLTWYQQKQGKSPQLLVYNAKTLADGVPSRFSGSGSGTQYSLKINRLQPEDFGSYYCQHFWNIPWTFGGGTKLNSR ?
Result: ≥ 24%

Task: Which cytotoxic activity (ADCC) against A549 value belongs to anti-CAPRIN-1 mouse monoclonal antibody #6 (antibody, V domains shown, Mouse hybridoma antibody; detected with anti-mouse IgG) VH: DAELVKPGASVKISCKASGYTFTDHSIHWVQQKPEQGLEWIGYISPGNGNIKYNEKFKGKATLTADKSSSTAYMQLNSLTSEDSAVYFCKRSLGRGGPYYFDYWGQGTTVTVSS VL: DIVLTQAAPSLPVTPGESVSISCRSSKSLLHSNGNTYLYWFLQRPGQSPQLLIYRMSNLASGVPDRFSGSGSGTAFTLRISRVEAEDVGVYYCMQHREYPVTFGSGPN ?
Result: ≥ 24%
